- tested on: STAT3 (Homo sapiens, UniProt P40763)
- Sequence (P40763 whole entry): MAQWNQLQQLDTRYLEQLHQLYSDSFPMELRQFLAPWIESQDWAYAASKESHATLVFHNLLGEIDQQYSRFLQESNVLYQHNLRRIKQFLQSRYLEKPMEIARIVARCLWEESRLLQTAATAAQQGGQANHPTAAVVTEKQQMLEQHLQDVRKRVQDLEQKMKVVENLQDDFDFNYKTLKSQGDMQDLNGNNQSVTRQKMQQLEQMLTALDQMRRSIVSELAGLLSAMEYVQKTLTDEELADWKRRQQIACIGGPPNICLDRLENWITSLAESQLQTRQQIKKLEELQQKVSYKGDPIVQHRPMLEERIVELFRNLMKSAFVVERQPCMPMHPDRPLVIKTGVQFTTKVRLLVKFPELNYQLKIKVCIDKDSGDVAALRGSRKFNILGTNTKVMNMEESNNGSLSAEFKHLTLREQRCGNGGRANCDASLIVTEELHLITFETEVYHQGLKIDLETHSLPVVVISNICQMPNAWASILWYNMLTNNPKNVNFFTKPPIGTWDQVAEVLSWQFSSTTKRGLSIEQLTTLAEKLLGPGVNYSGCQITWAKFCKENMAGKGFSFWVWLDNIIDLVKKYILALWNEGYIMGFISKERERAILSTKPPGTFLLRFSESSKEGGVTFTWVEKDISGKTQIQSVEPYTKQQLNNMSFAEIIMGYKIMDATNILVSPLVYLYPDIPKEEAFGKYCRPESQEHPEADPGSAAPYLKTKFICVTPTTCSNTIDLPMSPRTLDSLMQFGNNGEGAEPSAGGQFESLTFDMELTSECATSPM
- experimental details: Estimated DC50 for STAT3 degradation in MOLM-16 cells (immunoblotting)
- Type: cell-based
- Set-up: In vitro cultured cells or xenograft tumors were lysed; endogenous in cells; host or cells: MOLM-16
- condition summary: MOLM-16, 4 h; read-out: Estimated DC50 STAT3
observed property: DC50 (µM)
Answers are plain numbers, in µM.

[ask] Record request: DC50 value, item CCN1CC[C@H]2CC[C@@H](C(=O)N[C@@H](CCC(N)=O)C(=O)N[C@@H](Cc3ccc(C(=O)NC4CCOCC4)cc3)C(=O)N3CCC(CCC#Cc4cccc5c4CN(C4CCC(=O)NC4=O)C5=O)CC3)N2C(=O)[C@@H](NC(=O)c2cc3cc(C(F)(F)P(=O)(O)O)ccc3s2)C1 (some centres unmarked)
[reply] 1

###

- tested on: STAT3 (Homo sapiens, UniProt P40763)
- experimental details: Estimated DC50 for STAT3 degradation in MOLM-16 cells (immunoblotting)
- Assay type: cell-based
- Set-up: In vitro cultured cells or xenograft tumors were lysed; endogenous in cells; host or cells: MOLM-16
- condition summary: MOLM-16, 4 h; read-out: Estimated DC50 STAT3
observed property: DC50

compound	DC50
CCN1CC[C@H]2CC[C@@H](C(=O)N[C@@H](CCC(N)=O)C(=O)N[C@@H](Cc3ccc(C(=O)NC4CCCCC4)cc3)C(=O)N3CCC(CCC#Cc4cccc5c4CN(C4CCC(=O)NC4=O)C5=O)CC3)N2C(=O)[C@@H](NC(=O)c2cc3cc(C(F)(F)P(=O)(O)O)ccc3s2)C1 (stereo partly shown) [Cpd. No. 367]	< 1000 nM
CCN1CC[C@H]2CC[C@@H](C(=O)N[C@@H](CCC(N)=O)C(=O)N[C@@H](Cc3ccc(S(=O)(=O)C4CC4)cc3)C(=O)N3CCC(CCC#Cc4cccc5c4CN(C4CCC(=O)NC4=O)C5=O)CC3)N2C(=O)[C@@H](NC(=O)c2cc3cc(C(F)(F)P(=O)(O)O)ccc3s2)C1 (stereo partly shown) [Cpd. No. 353]	< 250 nM
CCN1CC[C@H]2CC[C@@H](C(=O)N[C@@H](CNC(N)=O)C(=O)N[C@@H](Cc3ccc(C(C)(C)C)cc3)C(=O)N3CCC(CCC#Cc4cccc5c4CN(C4CCC(=O)NC4=O)C5=O)CC3)N2C(=O)[C@@H](NC(=O)c2cc3cc(C(F)(F)P(=O)(O)O)ccc3s2)C1 (stereo partly shown) [compound 356]	< 250 nM

In the following, a different compound is considered.
[ask] Name the recorded DC50 for CCN1CC[C@H]2CC[C@@H](C(=O)N[C@@H](CCC(N)=O)C(=O)N[C@@H](Cc3ccc(C(=O)N4CCC(F)(F)CC4)cc3)C(=O)N3CCC(CCC#Cc4cccc5c4CN(C4CCC(=O)NC4=O)C5=O)CC3)N2C(=O)[C@@H](NC(=O)c2cc3cc(C(F)(F)P(=O)(O)O)ccc3s2)C1 (stereo partly shown) [Cpd. No. 365] .
[reply] < 250 nM

###

Provide the recorded DC50 for the entries that follow.
- tested on: STAT1 (Homo sapiens)
- Construct: In vitro cultured cells or xenograft tumors were lysed; endogenous in cells; host or cells: MOLM-16
- Sequence (P42224 whole entry): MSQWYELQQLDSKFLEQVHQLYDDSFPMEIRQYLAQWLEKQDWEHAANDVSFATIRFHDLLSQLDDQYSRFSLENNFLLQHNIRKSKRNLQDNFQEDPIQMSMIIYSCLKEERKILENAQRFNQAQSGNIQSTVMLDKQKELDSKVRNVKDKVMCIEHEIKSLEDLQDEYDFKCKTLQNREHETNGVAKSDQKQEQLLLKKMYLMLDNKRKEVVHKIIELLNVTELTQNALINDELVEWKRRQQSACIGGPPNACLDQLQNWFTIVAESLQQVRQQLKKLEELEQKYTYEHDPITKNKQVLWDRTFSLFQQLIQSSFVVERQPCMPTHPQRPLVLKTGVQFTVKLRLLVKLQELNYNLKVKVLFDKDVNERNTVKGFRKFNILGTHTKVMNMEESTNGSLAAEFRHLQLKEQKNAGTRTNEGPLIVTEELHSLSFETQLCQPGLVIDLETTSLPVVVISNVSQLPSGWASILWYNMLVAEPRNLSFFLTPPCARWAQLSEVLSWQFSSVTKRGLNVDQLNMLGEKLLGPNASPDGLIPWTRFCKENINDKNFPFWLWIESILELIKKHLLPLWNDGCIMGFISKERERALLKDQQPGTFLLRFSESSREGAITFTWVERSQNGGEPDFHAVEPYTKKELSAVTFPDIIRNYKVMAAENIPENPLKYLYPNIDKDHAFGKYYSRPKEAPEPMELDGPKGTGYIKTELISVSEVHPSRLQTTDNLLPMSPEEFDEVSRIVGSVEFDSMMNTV
- experimental details: Estimated DC50 for STAT1 degradation in MOLM-16 cells (immunoblotting)
- Assay type: cell-based
- condition summary: MOLM-16, 4 h; read-out: Estimated DC50 STAT1
- Method: FIG. 62 is a series of four images showing the fluorescent immunoblotting analysis of STAT1 and STAT3 protein in Molm-16 cells after treatment for 4 h with Cpd. Nos. 331, 296, 361, 362, 363, 364, 365, 366, and 367 at the concentrations indicated. In vitro cultured cells or xenograft tumors were lysed 1× Cell Lysis Buffer (Cell Signaling Technology, #9803), resolved by SDS-PAGE NuPAGE gel (Thermo Fisher Scientific), and transferred to a PVDF membrane (Bio Rad). […]

molecule	reading
COC(=O)N1CC[C@H]2CC[C@@H](C(=O)N[C@@H](CCC(N)=O)C(=O)N[C@@H](Cc3ccc(C(C)(C)C)cc3)C(=O)N3CCC(CCC#Cc4cccc5c4CN(C4CCC(=O)NC4=O)C5=O)CC3)N2C(=O)[C@@H](NC(=O)c2cc3cc(C(F)(F)P(=O)(O)O)ccc3s2)C1 (some centres unmarked)	250 nM

We now examine a further molecule.
[ask] Could you share what DC50 was measured for CCN1CC[C@H]2CC[C@@H](C(=O)N[C@@H](CCC(N)=O)C(=O)N[C@@H](Cc3ccc(C(=O)N4CCC(F)(F)CC4)cc3)C(=O)N3CCC(CCC#Cc4cccc5c4CN(C4CCC(=O)NC4=O)C5=O)CC3)N2C(=O)[C@@H](NC(=O)c2cc3cc(C(F)(F)P(=O)(O)O)ccc3s2)C1 (some centres unmarked) , tested on STAT1 (Homo sapiens)?
[reply] < 250 nM

The measurements presented in this section are drawn from patent US20230083015A1.
